Test system: MCP-1
Assay: LPS-stimulated human whole blood (hWB) MCP-1 release assay
Format: cell-based
Details: LPS-stimulated human whole blood; read-out: hWB MCP-1 IC50
result-type: pIC50
Numbers only, as −log10 of the molar value.

// pIC50 lookup, molecule = Cc1cc(-c2nc3ccccc3n2C[C@@H]2CCCN(C(=O)CCCN)C2)cn(C)c1=O , result: 6.30

====

Molecular target: PBRM1 BD2 (Homo sapiens)
Construct: PBRM1 BD2
Sequence (Q86U86 177-287 limits assumed): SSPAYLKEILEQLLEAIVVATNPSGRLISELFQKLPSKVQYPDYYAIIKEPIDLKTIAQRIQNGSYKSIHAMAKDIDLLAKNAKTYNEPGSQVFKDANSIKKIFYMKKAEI
Experiment: BROMOscan PBRM1 BD2
pKd: −log10 of the molar value.
result-type: pKd

// pKd lookup, compound = Cc1cc(-c2nc3ccccc3n2C[C@@H]2CCCN(C(=O)C3CCN(C(C)C)CC3)C2)cn(C)c1=O , result: < 4.50

====

Tested on: BRD4 BD1
Type: binding, human
Details: TR-FRET
result-type: BRD4 BD1 FRET pIC50
Give bare numbers.

Working through the 2 compounds below one at a time, give BRD4 BD1 FRET pIC50 for each.
1. Cc1cc(-c2nc3ccccc3n2C[C@@H]2CCCN(C(=O)C3CCN(CCF)CC3)C2)cn(C)c1=O
2. Cc1cc(-c2nc3ccccc3n2C[C@@H]2CCCN(C(=O)[C@H]3CC[C@H](N)C3)C2)cn(C)c1=O

7.6
7.7

====

Provide the reported BRD4 BD1 FRET pIC50 of each item.
Tested on: BRD4 BD1
Assay type: binding, human
Conditions: TR-FRET
One number for each entry.

# example entries with known answers
1) Cc1cc(-c2nc3ccccc3n2C[C@@H]2CCCN(C(=O)C3CCN(C)CC3)C2)cn(C)c1=O :: 7.6
2) CC(=O)N1CCC[C@@H](Cn2c(-c3cc(C)c(=O)n(C)c3)nc3ccccc32)C1 [(S)-12] :: 8.0

Working through the 4 molecules below one at a time, give BRD4 BD1 FRET pIC50 for each.
1. Cc1cc(-c2nc3ccccc3n2C[C@@H]2CCCN(C(=O)c3cnc[nH]3)C2)cn(C)c1=O
2. Cc1cc(-c2nc3ccccc3n2C[C@@H]2CCCN(C(=O)C3CCN(CC(F)F)CC3)C2)cn(C)c1=O
3. Cc1cc(-c2nc3ccccc3n2C[C@@H]2CCCN(C(=O)C3CCN(CC(F)(F)F)CC3)C2)cn(C)c1=O
4. Cc1cc(-c2nc3ccccc3n2C[C@@H]2CCCN(C(=O)C3CCNCC3)C2)cn(C)c1=O

7.0
6.7
6.3
7.5

====

System: MCP-1
Test: LPS-stimulated human whole blood (hWB) MCP-1 release assay
Type: cell-based
Conditions: LPS-stimulated human whole blood; read-out: hWB MCP-1 pIC50 (converted)
Provide the reported IC50 of each item.
Give bare numbers, in nM.

# example entries with known answers
1) Cc1cc(-c2nc3ccccc3n2C[C@@H]2CCCN(C(=O)C3CCN(CC(F)(F)F)CC3)C2)cn(C)c1=O [Compound 36] :: 1260
2) Cc1cc(-c2nc3ccccc3n2C[C@@H]2CCCN(C(=O)C3CCN(CC(F)F)CC3)C2)cn(C)c1=O [Compound 35] :: 631
3) Cc1cc(-c2nc3ccccc3n2C[C@@H]2CCCN(C(=O)C3CCN(C(C)C)CC3)C2)cn(C)c1=O [Compound 31] :: 126

Please examine the following record next.
// IC50 lookup, compound = Cc1cc(-c2nc3ccccc3n2C[C@@H]2CCCN(C(=O)c3cnc[nH]3)C2)cn(C)c1=O [Compound 26] , result: 2510

From: paper PMC10726358
